apparent KD of MS2 coat protein values by entry
- Tested on: MS2 coat protein
- measurement_description: apparent KD of MS2 coat protein; designed switch direction (-1 OFF switch, 1 ON switch): -1; higher = weaker reporter binding
- particulars: input ligand: microRNA oligo, concentration not stated
quantity_measured: apparent KD of MS2 coat protein (µM)

- entry_sequence: "CCCAGAGCGUAAGGAUAUACAUGAGGAUCACCCAUGUCUACAAUAAUAGUACUAUAUGAAGUCGUGUAGAAGGUACGCGCAGGU [Eternabot solution 46] (Eterna round: R96, puzzle: Exclusion NG 2)"
  quantity_measured: "apparent KD of MS2 coat protein"
  quantity_unit: "µM"
  readout_number: 0.0307
- entry_sequence: "ACAUGAGGAUCACCCAUGUUAUGUUGGGUACUAAAUUAUUCGUAGGAUAUCGAAGCUAGUUUGUGCGAGAAGGACGCAUUUUUU [JR_ExcNG3_Sub058] (Eterna round: R96, puzzle: Exclusion NG 3)"
  quantity_measured: "apparent KD of MS2 coat protein"
  quantity_unit: "µM"
  readout_number: 0.176
- entry_sequence: "GGGCUGCGACGCAGCCCAACAAAACAUGAGGAUCACCCAUGUCAGGAUAUACCGAUGCAGCAUCUGUAGAAGGGACAGAUCCAA [Tiraonin] (Eterna round: R96, puzzle: Exclusion NG 3)"
  quantity_measured: "apparent KD of MS2 coat protein"
  quantity_unit: "µM"
  readout_number: 0.0619
- entry_sequence: "ACAUGUGUUGUAGGAUAUAGGAUACAUGAGGAUCACCCAUGUGGAUUCAUGUCAAUGGAAACGUCCUAGAAGGACGACAACAUG [Ex NG2 #22] (Eterna round: R96, puzzle: Exclusion NG 2)"
  quantity_measured: "apparent KD of MS2 coat protein"
  quantity_unit: "µM"
  readout_number: 0.0427
- entry_sequence: "UCACGGGACUGAGGAUAUACAUCAACCAUGGUUGUAGAAGGCAGAAGGUUGGAUCAUAUACUAAACAUGAGGAUCACCCAUGUU [JR_ExcNG1_Sub030] (Eterna round: R96, puzzle: Exclusion NG 1)"
  quantity_measured: "apparent KD of MS2 coat protein"
  quantity_unit: "µM"
  readout_number: 0.0199

====

apparent KD of MS2 coat protein values by entry
- Test system: MS2 coat protein
- measurement_description: apparent KD of MS2 coat protein; higher = weaker reporter binding
- particulars: Eterna round: R107; input ligand: arginine 13.2 mM

- entry_sequence: "AACAUGUGGAUCACCCAUGUAUGUUCUGAAGGAGCGCCACAUGAGGCAGGUAGGUCGCAGGUACAUGAGGAUCACCCAUGUGUCA [Exclusion Arginine A 4]"
  quantity_unit: "nM"
  apparent KD of MS2 coat protein: 54.5
- entry_sequence: "AGUCUAUGAAGAGAUACCAGUGAGAGACAUAGACAUGAGGAUCACCCAUGUGACAUGAAGCACCCUUGGCAGCUCAACGAGCUCA [Theo B SS t1]"
  quantity_unit: "nM"
  apparent KD of MS2 coat protein: 31.4
- entry_sequence: "GUAAUUAUAAGAAGGAGCGUCGAAAAUGGGUAAACAUGAGGAUCACCCAUGUAAAGGGAACGACAGGUAGGUCGCUUAUGGUUAC [AstromonsSSArgB#24]"
  quantity_unit: "nM"
  apparent KD of MS2 coat protein: 99.2
- entry_sequence: "UGUAUGUGAUCUGAUACCAGUCCAACUGGUAAAACACGAGGAUCACCCGUGUAAAAUUGGGACCCUUGGCAGCAGAUCGCAUACU"
  quantity_unit: "nM"
  apparent KD of MS2 coat protein: 70
- entry_sequence: "CCGUUUUAUGGCGACAUAGGGCGGACUGAAGGAGCGGUAUAAUAGCCAGGUAGGUCGCAGAGAUCCACAUGAGGAUCACCCAUGU [!0.aB]"
  quantity_unit: "nM"
  apparent KD of MS2 coat protein: 73.9
- entry_sequence: "CAGAACAUGAGGAUCACCCAUGUUAGGGAUACCAGCUCAGACAUGGGCCCUUGGCAGCUCUAUGGCUGACGAAAGUCAGCAUCUG [#16 SameState-TheophyllineA]"
  quantity_unit: "nM"
  apparent KD of MS2 coat protein: 70.5
